# system_under_test: PPAR gamma (Homo sapiens)
# protocol: Transient transfection (transactivation) assay in CV-1 cells, GAL4-PPAR chimera, luciferase reporter
experimental_readout: EC50

| compound | reported_value |
| --- | --- |
| Cc1ccc(S(=O)(=O)N2CCCC(c3cccc(C(F)(F)F)c3)C2)cc1CC(=O)O (stereo not shown) | < 5 µM |
| CC(C)(C)c1ccc(N2CCN(S(=O)(=O)c3cccc(CC(=O)O)c3)CC2)cc1 | < 5 µM |
| Cc1ccc(CC(=O)O)cc1S(=O)(=O)N1CCN(c2ccc(Cl)cc2)CC1 | 5 to 100 µM |
| O=C(O)COc1cccc(S(=O)(=O)N2CCN(c3ccc(Cl)c(Cl)c3)CC2)c1 | > 100 µM |

====

# system_under_test: PPAR delta (Homo sapiens)
# Sequence (Q03181 211-439 limits assumed): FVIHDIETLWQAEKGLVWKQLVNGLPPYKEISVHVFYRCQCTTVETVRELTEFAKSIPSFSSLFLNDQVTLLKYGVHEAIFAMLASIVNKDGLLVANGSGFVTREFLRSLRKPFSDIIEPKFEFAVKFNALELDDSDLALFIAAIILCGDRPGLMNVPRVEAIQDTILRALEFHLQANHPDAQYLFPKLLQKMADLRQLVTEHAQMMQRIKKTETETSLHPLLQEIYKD
# protocol: Transient transfection (transactivation) assay in CV-1 cells, GAL4-PPAR chimera, luciferase reporter
pEC50: −log10 of the molar value.
experimental_readout: pEC50

| cpd_smiles | experimental_readout | reported_value |
| --- | --- | --- |
| Cc1ccc(S(=O)(=O)N2CCN(c3nc(C(F)(F)F)cs3)CC2)cc1CC(=O)O | pEC50 | 4.00 to 5.30 |
| Cc1ccc(S(=O)(=O)N2CCN(c3ccc(C(F)(F)F)cn3)CC2(C)C)cc1CC(=O)O | pEC50 | > 5.30 |
| Cc1ccc(S(=O)(=O)N2CCN(c3ncc(Br)s3)CC2)cc1CC(=O)O | pEC50 | > 5.30 |
| Cc1ccc(Cl)cc1N1CCN(S(=O)(=O)c2cccc(CC(=O)O)c2)CC1 | pEC50 | < 4.00 |
| C[C@@H]1CN(c2ccc(C(F)(F)F)c(Cl)c2)C[C@H](C)N1S(=O)(=O)c1cccc(CC(=O)O)c1 | pEC50 | > 5.30 |
| COC(=O)[C@@H]1CN(c2ccc(C(F)(F)F)cn2)CCN1S(=O)(=O)c1ccc(C)c(CC(=O)O)c1 | pEC50 | > 5.30 |
| Cc1cc(CC(=O)O)cc(S(=O)(=O)N2CCN(c3ccc(F)cc3)CC2)c1 | pEC50 | 4.00 to 5.30 |
| Cc1ccc(S(=O)(=O)N2CCN(CCc3ccccc3)CC2)cc1CC(=O)O | pEC50 | 4.00 to 5.30 |

====

Entries annotated with measured EC50
# system_under_test: PPAR gamma (Homo sapiens, UniProt P37231)
# protocol: Transient transfection (transactivation) assay in CV-1 cells, GAL4-PPAR chimera, luciferase reporter
experimental_readout: EC50

| compound | system_under_test | reported_value |
| --- | --- | --- |
| Cc1ccc(S(=O)(=O)N2C[C@@H]3C[C@H]2CN3c2cccc(F)c2)cc1CC(=O)O | PPAR gamma (Homo sapiens, UniProt P37231) | > 100 µM |
| Cc1ccc(N2CCN(S(=O)(=O)c3cccc(CC(=O)O)c3)CC2)cc1C | PPAR gamma (Homo sapiens, UniProt P37231) | 5 to 100 µM |
| Cc1ccc(S(=O)(=O)N2CCN(c3ccc(C(F)(F)F)cn3)[C@@H](C)C2)cc1CC(=O)O | PPAR gamma (Homo sapiens, UniProt P37231) | < 5 µM |
| Cc1ccc(S(=O)(=O)N2CCN(c3ccc(C(F)(F)F)c(F)c3)[C@@H](C)C2)cc1CC(=O)O | PPAR gamma (Homo sapiens, UniProt P37231) | 5 to 100 µM |
| Cc1ccc(CC(=O)O)cc1S(=O)(=O)N1CCN(C(c2ccccc2)c2ccc(Cl)cc2)CC1 (stereo not shown) | PPAR gamma (Homo sapiens, UniProt P37231) | 5 to 100 µM |
| Cc1ccc(S(=O)(=O)N2CCN(c3ccc(C(F)(F)F)cn3)[C@@H](C)[C@H]2C)cc1CC(=O)O (mixture of isomers) | PPAR gamma (Homo sapiens, UniProt P37231) | < 5 µM |
| Cc1ccc(CC(=O)O)cc1S(=O)(=O)N1CCN(c2ccc(C(F)(F)F)cc2[N+](=O)[O-])CC1 | PPAR gamma (Homo sapiens, UniProt P37231) | > 100 µM |
| Cc1cc(CC(=O)O)cc(S(=O)(=O)N2CCN(c3ccc(C(F)(F)F)cn3)CC2)c1 | PPAR gamma (Homo sapiens, UniProt P37231) | < 5 µM |
| COc1ccc(N2CCN(S(=O)(=O)c3cccc(CC(=O)O)c3)CC2)cc1 | PPAR gamma (Homo sapiens, UniProt P37231) | 5 to 100 µM |
| Cc1ccc(S(=O)(=O)N2CCCN(c3nc4ccccc4s3)CC2)cc1CC(=O)O | PPAR gamma (Homo sapiens, UniProt P37231) | 5 to 100 µM |
| Cc1cc(CC(=O)O)cc(S(=O)(=O)N2[C@@H](C)CN(c3ccc(C(F)(F)F)cn3)C[C@@H]2C)c1 | PPAR gamma (Homo sapiens, UniProt P37231) | 5 to 100 µM |
| COCc1cc(CC(=O)O)cc(S(=O)(=O)N2CCN(c3ccc(C(F)(F)F)cc3)CC2)c1 | PPAR gamma (Homo sapiens, UniProt P37231) | > 100 µM |
| O=C(O)Cc1cccc(S(=O)(=O)N2CCN(c3ccccc3Cl)CC2)c1 | PPAR gamma (Homo sapiens, UniProt P37231) | > 100 µM |
| Cc1cc(CC(=O)O)cc(S(=O)(=O)N2CCN(c3ccc(F)cc3)CC2)c1 | PPAR gamma (Homo sapiens, UniProt P37231) | > 100 µM |
| Cc1ccc(S(=O)(=O)N2CCN(c3ccc(OC(F)(F)F)cc3)C[C@@H]2C)cc1CC(=O)O | PPAR gamma (Homo sapiens, UniProt P37231) | 5 to 100 µM |
| Cc1ccc(S(=O)(=O)N2CCN(c3ccc(C(F)(F)F)cn3)CC2C)cc1CC(=O)O (stereo not shown) | PPAR gamma (Homo sapiens, UniProt P37231) | 5 to 100 µM |

====

# system_under_test: UniProt P37231
# Sequence (P37231 238-503 limits assumed): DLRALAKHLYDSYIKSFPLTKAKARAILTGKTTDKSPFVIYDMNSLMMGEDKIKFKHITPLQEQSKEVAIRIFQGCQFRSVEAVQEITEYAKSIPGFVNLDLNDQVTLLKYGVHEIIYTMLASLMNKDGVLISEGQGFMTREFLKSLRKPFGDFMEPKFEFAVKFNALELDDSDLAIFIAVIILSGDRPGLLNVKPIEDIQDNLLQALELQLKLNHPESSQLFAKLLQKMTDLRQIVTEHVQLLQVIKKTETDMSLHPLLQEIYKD
# protocol: Transient transfection (transactivation) assay in CV-1 cells, GAL4-PPAR chimera, luciferase reporter
Entries annotated with measured EC50

| molecule | EC50 |
| --- | --- |
| O=C(O)CCc1cccc(S(=O)(=O)N2CCN(c3ccc(Cl)c(Cl)c3)CC2)c1 | 5 to 100 µM |
| Cc1ccc(S(=O)(=O)N2[C@H](C)CN(c3nc4ccccc4s3)C[C@@H]2C)cc1CC(=O)O | > 100 µM |
| C[C@@H]1CN(c2ccc(C(F)(F)F)cn2)C[C@H](C)N1S(=O)(=O)c1ccc(O)c(CCC(=O)O)c1 | > 100 µM |
| COc1ccc(S(=O)(=O)N2[C@H](C)CN(c3ccc(C(F)(F)F)cn3)C[C@@H]2C)cc1CCC(=O)O | > 100 µM |
| O=C(O)Cc1cc(Br)cc(S(=O)(=O)N2CCN(c3ccc(C(F)(F)F)cn3)CC2)c1 | 5 to 100 µM |
| C[C@@H]1CN(c2ccc(OC(F)(F)F)cc2)C[C@H](C)N1S(=O)(=O)c1cc(Br)cc(CC(=O)O)c1 | 5 to 100 µM |
| C[C@@H]1CN(c2ccc(C(F)(F)F)c(Cl)c2)C[C@H](C)N1S(=O)(=O)c1cccc(CC(=O)O)c1 | > 100 µM |
| COc1ccc(N2CCN(S(=O)(=O)c3ccc(C)c(CC(=O)O)c3)CC2)cc1OC | > 100 µM |
| COc1ccc(CC(=O)O)cc1S(=O)(=O)N1CCN(c2ccc(C(F)(F)F)cn2)CC1 | 5 to 100 µM |
| C[C@@H]1CN(c2ccc(OC(F)(F)F)cc2)C[C@H](C)N1S(=O)(=O)c1ccc(O)c(CC(=O)O)c1 | > 100 µM |
| O=C(O)Cc1c(F)ccc(S(=O)(=O)N2CCN(c3ccc(C(F)(F)F)cn3)CC2)c1F | 5 to 100 µM |
| O=C(O)Cc1cc(COCCO)cc(S(=O)(=O)N2CCN(c3ccc(C(F)(F)F)cc3)CC2)c1 | > 100 µM |
| C[C@H]1CN(S(=O)(=O)c2cccc(CC(=O)O)c2)CCN1c1ccc(C(F)(F)F)c(F)c1 | 5 to 100 µM |
| O=C(O)Cc1cccc(S(=O)(=O)N2CCN(c3ccc(C(F)(F)F)cc3[N+](=O)[O-])CC2)c1 | 5 to 100 µM |
| Cc1ccc(C)c(N2CCN(S(=O)(=O)c3cc(CC(=O)O)ccc3C)CC2)c1 | 5 to 100 µM |
| Cc1ccc(S(=O)(=O)N2[C@H](C)CN(c3ccc(OC(F)(F)F)cc3)C[C@@H]2C)cc1CC(=O)O | 5 to 100 µM |
| Cc1ccc(S(=O)(=O)N2CCN(c3nc(Cl)ncc3F)CC2)cc1CC(=O)O | 5 to 100 µM |
| C[C@H]1CN(c2ccc(OC(F)(F)F)cc2)CCN1S(=O)(=O)c1cccc(CC(=O)O)c1 | 5 to 100 µM |
| Cc1ccc(S(=O)(=O)N2CCN(c3ccc(Br)cn3)CC2)cc1CC(=O)O | < 5 µM |
| Cc1cccc(N2CCN(S(=O)(=O)c3cc(CC(=O)O)ccc3C)CC2C)c1 (stereo not drawn) | 5 to 100 µM |
| C[C@@H]1CN(S(=O)(=O)c2cccc(CC(=O)O)c2)C[C@H](C)N1c1ccc(C(F)(F)F)cn1 | < 5 µM |
| Cc1ccc(S(=O)(=O)N2CCN(c3ccc(C(F)(F)F)cn3)CC2(C)C)cc1CC(=O)O | < 5 µM |
| COC(=O)[C@@H]1CN(c2ccc(C(F)(F)F)cn2)CCN1S(=O)(=O)c1ccc(C)c(CC(=O)O)c1 | > 100 µM |
| C[C@@H]1CN(c2ccc(OC(F)(F)F)cc2)C[C@H](C)N1S(=O)(=O)c1cc(CC(=O)O)cc(C(F)(F)F)c1 | 5 to 100 µM |
| COC(=O)[C@H]1CN(c2ccc(C(F)(F)F)cn2)CCN1S(=O)(=O)c1ccc(C)c(CC(=O)O)c1 | > 100 µM |
| O=C(O)Cc1cccc(S(=O)(=O)N2CCN(c3ccc(C(F)(F)F)cn3)CC2)c1 | 5 to 100 µM |
| Cc1cc(CC(=O)O)cc(S(=O)(=O)N2[C@H](C)CN(c3ccc(C(F)(F)F)cn3)C[C@@H]2C)c1 | > 100 µM |
| CCNCc1cc(CC(=O)O)cc(S(=O)(=O)N2CCN(c3ccc(C(F)(F)F)cc3)CC2)c1 | > 100 µM |
| Cc1cc(S(=O)(=O)N2[C@H](C)CN(c3ccc(C(F)(F)F)cn3)C[C@@H]2C)cc(CC(=O)O)c1Br | 5 to 100 µM |
| Cc1ccc(S(=O)(=O)N2CCN(c3ncc(C(F)(F)F)cn3)CC2)cc1CC(=O)O | < 5 µM |
